# System: HT29 colon
# assay.explanation: NCI tumour cell line growth inhibition, 48 h; in the data active means GI50 below about 0.43 µM; inactive means the rest
Outcome codes: 1 (yes) = active, 0 (no) = inactive

* N#Cc1c(NC(=O)c2ccc(F)c(Cl)c2)sc2c1CCC(=O)C2 | 1 (yes)
* Cc1ccc2c(n1)C(=O)C(Cl)=C(Nc1cccc(C(F)(F)F)c1)C2=O | 0 (no)
* CC(C)=CCc1c2c(c(O)c3c1O[C@]14C(=C[C@@H]5C[C@H]1C(C)(C)O[C@@]4(C/C=C(/C)C(=O)O)C5=O)C3=O)CC(O)C(C)(C)O2 (some centres undefined) | 0 (no)
* CCN(CC)c1ccc(/C=N/NC(=O)c2ccc(NS(C)(=O)=O)cc2)cc1 | 0 (no)

* * *

# Test system: K-562 leukemia
# assay.explanation: NCI tumour cell line growth inhibition, 48 h; in the data active = GI50 below about 0.43 µM; inactive = the rest
Outcome codes: active, inactive

• Oc1cccc2ccc(-c3nnc(SCc4ccc(O)c5ncccc45)o3)nc12 = active
• N#Cc1c(NC(=O)c2ccc(F)c(Cl)c2)sc2c1CCC(=O)C2 = active
• CCN(CC)c1ccc(/C=N/NC(=O)c2ccc(NS(C)(=O)=O)cc2)cc1 = inactive
• COc1ccc(C2C(C#N)=C(N)Oc3c2sc2ccc(C)cc32)cc1 (centres undefined) = inactive

* * *

# System: SF-539 CNS
# assay.explanation: NCI tumour cell line growth inhibition, 48 h; in the data active = GI50 below about 0.43 µM; inactive = the rest
Outcome codes: Yes for active, No for inactive

* N#Cc1c(NC(=O)c2ccc(F)c(Cl)c2)sc2c1CCC(=O)C2 | Yes
* CCN(CC)c1ccc(/C=N/NC(=O)c2ccc(NS(C)(=O)=O)cc2)cc1 | No
* Cc1ccc2c(n1)C(=O)C(Cl)=C(Nc1cccc(C(F)(F)F)c1)C2=O | No
* COc1ccc(C2C(C#N)=C(N)Oc3c2sc2ccc(C)cc32)cc1 (centres undefined) | No

* * *

# Test system: SR leukemia
# assay.explanation: NCI tumour cell line growth inhibition, 48 h
quantity: TGI

• Cc1ccc2c(n1)C(=O)C(Cl)=C(Nc1cccc(C(F)(F)F)c1)C2=O = 5 µM
• CC(C)=CCc1c2c(c(O)c3c1O[C@]14C(=C[C@@H]5C[C@H]1C(C)(C)O[C@@]4(C/C=C(/C)C(=O)O)C5=O)C3=O)CC(O)C(C)(C)O2 (some centres undefined) = > 100 µM
• [Cl][Ru].c1ccc(-c2cccc(-c3ccccn3)n2)nc1.c1ccc(-c2ccnc3c2ccc2c(-c4ccccc4)ccnc23)cc1 = 17.9 µM
• CCN(CC)c1ccc(/C=N/NC(=O)c2ccc(NS(C)(=O)=O)cc2)cc1 = > 100 µM

* * *

# System: CCRF-CEM leukemia
# assay.explanation: NCI tumour cell line growth inhibition, 48 h
quantity: TGI (µM)

- CC(C)=CCc1c2c(c(O)c3c1O[C@]14C(=C[C@@H]5C[C@H]1C(C)(C)O[C@@]4(C/C=C(/C)C(=O)O)C5=O)C3=O)CC(O)C(C)(C)O2 (some centres undefined): 40.9
- Cc1ccc2c(n1)C(=O)C(Cl)=C(Nc1cccc(C(F)(F)F)c1)C2=O: 4.71

* * *

# System: HCT-116 colon
# assay.explanation: NCI tumour cell line growth inhibition, 48 h; in the data active means GI50 below about 0.43 µM; inactive means the rest
Outcome codes: active, inactive

- Oc1cccc2ccc(-c3nnc(SCc4ccc(O)c5ncccc45)o3)nc12: active
- N#Cc1c(NC(=O)c2ccc(F)c(Cl)c2)sc2c1CCC(=O)C2: active
- Cc1ccc2c(n1)C(=O)C(Cl)=C(Nc1cccc(C(F)(F)F)c1)C2=O: inactive
- COc1ccc(C2C(C#N)=C(N)Oc3c2sc2ccc(C)cc32)cc1 (centres undefined): inactive
